// each record: one item and its AC50 for Cytochrome P450 2D6 (Homo sapiens, UniProt P10635)

compound: O=C(Nc1cccc2ccccc12)c1ccccc1
meas value: 0.00251 µM (inconclusive)
//
compound: O=C(NCCc1ccccc1)c1noc2c1CCc1ccccc1-2
meas value: 2.51 µM (inconclusive)
//
compound: CC(C)Cn1c(SCc2nc(O)c3ccccc3n2)nc2ccccc2c1=O
meas value: 3.98 µM (inconclusive)
//
compound: O=C(c1csnn1)N1CCC2(CC1)CCN(c1ccccc1)CC2
meas value: 7.94 µM (inconclusive)
//
compound: COC1=C(OC)C(=O)c2ccccc2C1=O
meas value: 39.8 µM (inconclusive)

Input: Give me measured AC50, please, for this compound: COC(=O)[C@@]1(Cc2ccc(OC)cc2)[C@H]2c3cc(C(=O)N(C)C)n(CCc4c[nH]c5ccc(O)cc45)c3C[C@H]2CN1C(=O)c1ccccc1
Output: 15.8 µM (inconclusive)

Input: Give me measured AC50, please, for this compound: O=C(Nc1cccc(C(F)(F)F)c1)c1ccc(Cn2cc(Br)cn2)o1
Output: 22.4 µM (inconclusive)

Input: Give me measured AC50, please, for this compound: COCCn1c(=O)c(-c2ccc(Cl)cc2)nc2cnc(N(C)C)nc21
Output: 0.0794 µM (inconclusive)

Input: Give me measured AC50, please, for this compound: COc1ccc(CNc2ccnc(-c3cccc(C#N)c3)n2)c(OC)c1
Output: 12.6 µM (inconclusive)

Input: Give me measured AC50, please, for this compound: CCC(C(=O)c1ccccc1)N(C(=O)c1ccccc1Cl)N1C(=O)C2C3C=CC(C3)C2C1=O (stereo not given)
Output: 7.08 µM (inconclusive)

###

# assayed target: Corticotropin-releasing factor receptor 2/Corticotropin-releasing factor-binding protein (Homo sapiens, UniProt P24387+Q13324)
# assay protocol: activators of CRF receptor 2 with binding protein – uHTS hits, confirmation (AID 602473)
# Type: functional
# experimental context: read-out: EC50_Mean
Calls of active or inactive are those of the source.
property label: EC50

Before answering, review these 3 worked examples.
compound: COc1cc(C=O)ccc1Oc1cnccn1
meas value: > 53 µM (inactive)

compound: COc1cc(NC(S)=NCc2ccco2)cc(OC)c1
meas value: > 53 µM (inactive)

compound: CCCNC(=O)/C(=C/c1cn(S(=O)(=O)N(C)C)c2ccccc12)NC(=O)c1ccc(OC)cc1
meas value: 4.01 µM (active)

Input: Give me measured EC50, please, for this compound: Cc1cc([N+](=O)[O-])ccc1NCc1ccccc1[N+](=O)[O-]
Output: > 53 µM (inactive)

Input: Give me measured EC50, please, for this compound: COc1ccc(CNc2cc([N+](=O)[O-])ccc2OC)cc1
Output: > 53 µM (inactive)

Input: Give me measured EC50, please, for this compound: CCC(c1nnc(SCC(=O)Nc2c(F)cccc2F)n1Cc1ccccc1)N(C)C (stereo unspecified)
Output: > 53 µM (inactive)

###

# assayed target: Peroxisome proliferator-activated receptor gamma/Nuclear receptor coactivator 2 (Homo sapiens)
# Sequence (P37231 whole entry): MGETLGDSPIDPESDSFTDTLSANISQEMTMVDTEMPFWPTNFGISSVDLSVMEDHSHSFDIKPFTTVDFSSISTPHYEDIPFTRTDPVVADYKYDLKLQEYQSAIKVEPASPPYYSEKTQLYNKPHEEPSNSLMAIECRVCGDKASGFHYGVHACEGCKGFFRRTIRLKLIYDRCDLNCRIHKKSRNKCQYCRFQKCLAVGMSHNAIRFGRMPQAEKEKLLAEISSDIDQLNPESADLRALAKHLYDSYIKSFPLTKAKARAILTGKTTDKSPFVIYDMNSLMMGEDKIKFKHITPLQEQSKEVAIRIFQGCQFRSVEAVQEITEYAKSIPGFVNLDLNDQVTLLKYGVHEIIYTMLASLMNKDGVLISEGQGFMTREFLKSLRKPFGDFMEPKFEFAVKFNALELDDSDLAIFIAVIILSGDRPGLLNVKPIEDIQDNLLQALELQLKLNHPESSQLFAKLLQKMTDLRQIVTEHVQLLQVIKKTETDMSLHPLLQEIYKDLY
# Sequence (Q15596 whole entry, further chain): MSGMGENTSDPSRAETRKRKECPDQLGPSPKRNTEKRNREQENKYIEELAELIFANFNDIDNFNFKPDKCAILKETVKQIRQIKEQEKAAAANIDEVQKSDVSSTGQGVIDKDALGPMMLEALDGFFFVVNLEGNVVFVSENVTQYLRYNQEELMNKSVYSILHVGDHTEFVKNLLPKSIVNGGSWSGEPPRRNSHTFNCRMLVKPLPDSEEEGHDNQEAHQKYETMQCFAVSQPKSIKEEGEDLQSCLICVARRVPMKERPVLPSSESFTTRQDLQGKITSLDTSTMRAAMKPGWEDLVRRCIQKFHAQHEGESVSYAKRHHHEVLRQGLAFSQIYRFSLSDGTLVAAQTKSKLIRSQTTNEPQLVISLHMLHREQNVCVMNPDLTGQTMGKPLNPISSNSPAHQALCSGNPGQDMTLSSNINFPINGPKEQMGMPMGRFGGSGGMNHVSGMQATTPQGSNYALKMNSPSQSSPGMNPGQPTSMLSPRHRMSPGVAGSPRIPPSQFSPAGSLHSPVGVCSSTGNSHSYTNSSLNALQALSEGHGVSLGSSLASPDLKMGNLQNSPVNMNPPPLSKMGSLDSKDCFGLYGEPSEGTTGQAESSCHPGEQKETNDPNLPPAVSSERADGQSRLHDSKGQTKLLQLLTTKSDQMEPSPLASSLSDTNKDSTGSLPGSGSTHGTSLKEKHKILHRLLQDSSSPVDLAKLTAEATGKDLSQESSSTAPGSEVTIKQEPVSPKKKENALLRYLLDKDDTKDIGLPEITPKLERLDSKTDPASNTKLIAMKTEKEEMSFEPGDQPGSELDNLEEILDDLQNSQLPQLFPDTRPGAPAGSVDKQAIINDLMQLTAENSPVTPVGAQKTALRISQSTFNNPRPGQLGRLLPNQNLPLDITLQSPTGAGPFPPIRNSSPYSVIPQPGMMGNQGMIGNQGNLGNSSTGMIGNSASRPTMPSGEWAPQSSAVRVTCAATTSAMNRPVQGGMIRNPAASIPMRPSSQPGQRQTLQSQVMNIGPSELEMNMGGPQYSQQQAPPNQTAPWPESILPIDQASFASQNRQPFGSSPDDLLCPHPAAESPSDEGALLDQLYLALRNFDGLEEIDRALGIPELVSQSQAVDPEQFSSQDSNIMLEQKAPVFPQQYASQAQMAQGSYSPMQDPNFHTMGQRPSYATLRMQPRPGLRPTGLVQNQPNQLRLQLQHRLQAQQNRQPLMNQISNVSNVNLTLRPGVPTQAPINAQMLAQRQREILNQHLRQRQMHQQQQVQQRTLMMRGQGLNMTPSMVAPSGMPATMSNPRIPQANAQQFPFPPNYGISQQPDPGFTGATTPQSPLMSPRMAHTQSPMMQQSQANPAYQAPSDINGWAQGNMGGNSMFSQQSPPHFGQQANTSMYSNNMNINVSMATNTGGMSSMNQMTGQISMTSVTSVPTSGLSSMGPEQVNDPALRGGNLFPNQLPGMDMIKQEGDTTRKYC
# assay protocol: TR-FRET dose response biochemical High Throughput Screening assay for agonists of the steroid receptor coactivator 2 (SRC-2) recruitment by the peroxisome proliferator-activated receptor gamma (PPAR gamma): non-selective agonists. [Related pubchem assays: 1297, 1032 ]
# Type: functional
The following compounds are listed with their measured EC50 values.

Input: Give me measured EC50, please, for this compound: Cc1onc(-c2c(F)cccc2Cl)c1C(=O)Nc1nnc(-c2ccccc2)s1
Output: 29.8 µM (not active)

###

The following compounds are listed with their measured EC50 values.
# assayed target: Peroxisome proliferator-activated receptor gamma/Nuclear receptor coactivator 3 (Homo sapiens, UniProt P37231)
# Sequence (Q9Y6Q9 whole entry, one chain of several, further chain): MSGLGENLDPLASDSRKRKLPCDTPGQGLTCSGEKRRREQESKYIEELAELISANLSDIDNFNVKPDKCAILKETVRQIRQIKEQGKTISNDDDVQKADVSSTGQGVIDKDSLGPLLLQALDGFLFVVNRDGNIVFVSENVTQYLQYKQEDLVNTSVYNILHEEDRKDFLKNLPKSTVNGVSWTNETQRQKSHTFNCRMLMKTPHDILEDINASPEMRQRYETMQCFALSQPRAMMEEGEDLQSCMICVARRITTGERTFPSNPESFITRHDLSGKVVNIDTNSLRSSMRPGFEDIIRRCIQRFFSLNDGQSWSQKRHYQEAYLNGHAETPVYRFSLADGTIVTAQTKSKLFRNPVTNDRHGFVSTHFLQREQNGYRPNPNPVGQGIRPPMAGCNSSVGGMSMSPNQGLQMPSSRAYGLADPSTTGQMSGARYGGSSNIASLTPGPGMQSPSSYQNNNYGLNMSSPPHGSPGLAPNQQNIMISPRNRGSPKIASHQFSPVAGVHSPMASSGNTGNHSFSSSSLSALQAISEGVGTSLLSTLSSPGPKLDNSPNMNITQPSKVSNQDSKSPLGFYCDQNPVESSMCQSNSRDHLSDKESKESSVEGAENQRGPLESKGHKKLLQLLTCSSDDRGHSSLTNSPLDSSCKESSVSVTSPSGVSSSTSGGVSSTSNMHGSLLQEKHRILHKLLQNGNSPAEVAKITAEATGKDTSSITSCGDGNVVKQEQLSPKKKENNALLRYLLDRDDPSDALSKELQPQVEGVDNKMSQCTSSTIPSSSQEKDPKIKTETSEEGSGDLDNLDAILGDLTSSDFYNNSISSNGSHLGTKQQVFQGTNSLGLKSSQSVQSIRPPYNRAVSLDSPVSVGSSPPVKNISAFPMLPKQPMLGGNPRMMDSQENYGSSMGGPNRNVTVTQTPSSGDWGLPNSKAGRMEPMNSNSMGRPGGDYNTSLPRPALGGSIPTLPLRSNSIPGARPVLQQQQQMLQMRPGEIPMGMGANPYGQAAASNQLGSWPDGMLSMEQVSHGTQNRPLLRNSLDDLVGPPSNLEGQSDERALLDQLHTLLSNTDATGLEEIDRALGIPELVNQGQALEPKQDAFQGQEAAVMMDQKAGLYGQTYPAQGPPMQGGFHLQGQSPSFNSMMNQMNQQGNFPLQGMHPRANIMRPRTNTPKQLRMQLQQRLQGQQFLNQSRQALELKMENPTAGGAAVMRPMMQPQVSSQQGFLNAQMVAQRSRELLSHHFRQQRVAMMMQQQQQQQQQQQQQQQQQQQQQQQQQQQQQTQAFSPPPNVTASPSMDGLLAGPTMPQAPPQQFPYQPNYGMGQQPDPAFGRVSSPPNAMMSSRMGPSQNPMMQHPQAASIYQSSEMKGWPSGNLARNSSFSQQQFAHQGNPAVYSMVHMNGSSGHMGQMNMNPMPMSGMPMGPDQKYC
# assay protocol: TR-FRET dose response biochemical High Throughput Screening assay for agonists of the steroid receptor coactivator 3 (SRC-3) recruitment by the peroxisome proliferator-activated receptor gamma (PPAR gamma): non-selective agonists. [Related pubchem assays: 1301 (Confirmation screen.), 1048 (Primary screen.)]
# Assay type: functional
Activity calls are given as the source filed them.

Before answering, review these 4 worked examples.
compound: O=C(Nc1nc2c(s1)COc1ccccc1-2)c1cccs1
EC50: > 79.4 µM (not active)

compound: CC(Nc1ccc(Br)cn1)c1cc(Cl)ccc1O (stereo not given)
EC50: 3.26 µM (active)

compound: COc1cc(/C=C(\C#N)C(=O)Nc2ccccc2C(=O)O)cc(Cl)c1OC
EC50: 8.27 µM (active)

compound: Cc1onc(-c2c(F)cccc2Cl)c1C(=O)Nc1nnc(-c2ccccc2)s1
EC50: > 79.4 µM (not active)

Now for a further compound.
Input: Give me measured EC50, please, for this compound: CCn1c(=O)cc(SCC(=O)N2CCC(C)CC2)c2ccccc21
Output: > 79.4 µM (not active)

###

# assayed target: Replicative DNA helicase DnaB (Mycobacterium tuberculosis)
# Sequence (P9WMR3 1-399, added parts left off): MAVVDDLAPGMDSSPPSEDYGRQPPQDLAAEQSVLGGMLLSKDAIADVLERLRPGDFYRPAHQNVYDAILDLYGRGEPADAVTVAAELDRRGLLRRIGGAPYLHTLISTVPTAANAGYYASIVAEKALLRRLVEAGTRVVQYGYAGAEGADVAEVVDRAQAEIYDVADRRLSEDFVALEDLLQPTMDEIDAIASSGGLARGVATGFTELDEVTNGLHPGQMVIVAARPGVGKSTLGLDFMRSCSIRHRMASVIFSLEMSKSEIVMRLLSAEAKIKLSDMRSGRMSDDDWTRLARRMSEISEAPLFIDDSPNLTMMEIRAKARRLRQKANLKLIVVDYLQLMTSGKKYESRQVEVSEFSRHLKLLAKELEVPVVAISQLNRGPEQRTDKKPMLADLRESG
# assay protocol: DnaB intein splicing inhibitors, dose response, biochemical, cell-free fluorescence (AID 449749)
# Assay type: functional
Active and inactive are the calls of the source.
Give one outcome, nothing more. List: active, inactive

Field: example entries. Status: answers known.
compound: CCCCCCCCOC(=O)c1c(CSC(=N)N)n(C)c2cc(Br)c(OC(C)=O)cc12
category: active
--
compound: Oc1cc(O)c2c(c1)O[C@H](c1ccc(O)c(O)c1)[C@H](O)C2 [(-)-EPICATECHIN]
category: inactive
--
compound: O=c1[nH]cc(/N=C/c2cc([N+](=O)[O-])ccc2O)c(=O)[nH]1
category: active

Input: Status in this test for O=C1/C(=N/c2ccc(O)cc2)C(Cl)=C(O)c2ccccc21 ?
Output: active

Input: Status in this test for O=C(CCl)Nc1ccc(N2CCCCCC2)cc1 ?
Output: active

Input: Status in this test for CCOC(=O)c1oc2nc(CC(C)C)c3c(c2c1N)CCC3 ?
Output: active

Input: Status in this test for CC(C)N(c1ccccc1)c1ccc(NC(=O)CCl)cc1 ?
Output: active

Input: Status in this test for CC1=NN(c2ccccc2)C(=O)/C1=C/c1cc2ccccc2[nH]1 ?
Output: active

###

# assayed target: Nucleotide-binding oligomerization domain-containing protein 1 (Homo sapiens)
# Sequence (Q9Y239 whole entry, the tested form may be a part): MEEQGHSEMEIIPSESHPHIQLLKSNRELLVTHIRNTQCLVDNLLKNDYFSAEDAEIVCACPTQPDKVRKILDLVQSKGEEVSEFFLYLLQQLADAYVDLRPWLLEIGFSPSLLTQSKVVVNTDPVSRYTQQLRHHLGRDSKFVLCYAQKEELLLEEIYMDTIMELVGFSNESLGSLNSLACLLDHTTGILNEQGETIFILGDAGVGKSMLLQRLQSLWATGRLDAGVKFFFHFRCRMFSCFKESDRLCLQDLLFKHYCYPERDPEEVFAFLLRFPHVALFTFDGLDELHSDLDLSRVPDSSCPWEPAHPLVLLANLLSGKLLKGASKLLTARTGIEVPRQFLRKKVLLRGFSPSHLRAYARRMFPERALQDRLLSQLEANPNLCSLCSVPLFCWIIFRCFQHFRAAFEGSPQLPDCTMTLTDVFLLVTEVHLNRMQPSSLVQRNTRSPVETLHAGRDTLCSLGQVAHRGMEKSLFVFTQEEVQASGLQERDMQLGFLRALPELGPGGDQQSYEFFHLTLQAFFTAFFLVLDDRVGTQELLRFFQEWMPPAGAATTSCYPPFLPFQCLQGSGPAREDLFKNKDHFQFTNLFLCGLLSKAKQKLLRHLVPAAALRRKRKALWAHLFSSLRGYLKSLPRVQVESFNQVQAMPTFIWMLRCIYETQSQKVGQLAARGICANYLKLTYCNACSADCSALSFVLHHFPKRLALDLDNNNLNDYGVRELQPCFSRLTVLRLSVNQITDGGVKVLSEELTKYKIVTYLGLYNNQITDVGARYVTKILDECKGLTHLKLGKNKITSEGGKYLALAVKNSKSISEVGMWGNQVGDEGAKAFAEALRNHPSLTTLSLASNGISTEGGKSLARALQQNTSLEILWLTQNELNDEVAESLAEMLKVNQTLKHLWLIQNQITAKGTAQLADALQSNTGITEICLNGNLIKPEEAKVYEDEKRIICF
# assay protocol: blockers of NOD1 pathway activity – revised, SAR follow-up (AID 2333)
# Format: functional
Calls of active or inactive are those of the source.
property label: IC50

molecule: CCc1cc(C(=O)NC2CCCc3c2cnn3-c2ccccc2F)no1 (centres undefined)
IC50: 17.5 µM (active)

molecule: CCOc1ccc(C(=O)NC2CCCc3c2cnn3-c2ccccc2F)cc1 (centres undefined)
IC50: 12.8 µM (active)

molecule: Cn1nccc1C(=O)N[C@H]1CCCc2c1cnn2-c1ccccc1F
IC50: 0.781 µM (active)

Now for a further molecule.
Input: Please report IC50 with Nucleotide-binding oligomerization domain-containing protein 1 (Homo sapiens) for item Cc1ccc(C(=O)N2CCN(c3ccc(F)cc3)CC2)cc1S(=O)(=O)N1CCCCC1 .
Output: 5.07 µM (active)

###

# assayed target: Ubiquitin-conjugating enzyme E2 N (Homo sapiens, UniProt P61088)
# Sequence (P61088 whole entry): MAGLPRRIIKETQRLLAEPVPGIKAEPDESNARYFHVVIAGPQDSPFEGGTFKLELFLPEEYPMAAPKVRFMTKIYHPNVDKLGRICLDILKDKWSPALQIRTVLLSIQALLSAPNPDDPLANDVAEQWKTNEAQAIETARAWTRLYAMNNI
# Type: functional
Calls of active or inactive are those of the source.
Give one outcome, nothing more. List: 1.0 = active, 0.0 = inactive

Field: example entries. Status: answers known.
compound: NCCCn1c(C(=O)c2cc(Cl)c(N)c(Cl)c2)c2ccc(C(F)(F)F)cc2[n+]1[O-]
category: 1.0
//
compound: O=C(CSc1nc2ccsc2c(=O)n1Cc1ccccc1)NCc1ccco1
category: 0.0
//
compound: CCCCCCCCOC(=O)c1c(CSC(=N)N)n(C)c2cc(Br)c(OC(C)=O)cc12
category: 1.0

Input: Status in this test for CC(=O)N1NC(=C2C(=O)N(C)C(=O)N(C)C2=O)CC1c1ccccc1 (configuration not stated) ?
Output: 1.0

Input: Status in this test for OCCN1CCN(CCCN2c3ccccc3Sc3ccc(Cl)cc32)CC1 ?
Output: 1.0

Input: Status in this test for N=C(N)N/N=C/c1ccc(OCc2ccc(Cl)cc2Cl)cc1 ?
Output: 1.0

Input: Status in this test for [H]/N=C(\N/C(=N/[H])NCCCCCCNC(=N)NC(=N)Nc1ccc(Cl)cc1)Nc1ccc(Cl)cc1 ?
Output: 1.0

###

Target chain: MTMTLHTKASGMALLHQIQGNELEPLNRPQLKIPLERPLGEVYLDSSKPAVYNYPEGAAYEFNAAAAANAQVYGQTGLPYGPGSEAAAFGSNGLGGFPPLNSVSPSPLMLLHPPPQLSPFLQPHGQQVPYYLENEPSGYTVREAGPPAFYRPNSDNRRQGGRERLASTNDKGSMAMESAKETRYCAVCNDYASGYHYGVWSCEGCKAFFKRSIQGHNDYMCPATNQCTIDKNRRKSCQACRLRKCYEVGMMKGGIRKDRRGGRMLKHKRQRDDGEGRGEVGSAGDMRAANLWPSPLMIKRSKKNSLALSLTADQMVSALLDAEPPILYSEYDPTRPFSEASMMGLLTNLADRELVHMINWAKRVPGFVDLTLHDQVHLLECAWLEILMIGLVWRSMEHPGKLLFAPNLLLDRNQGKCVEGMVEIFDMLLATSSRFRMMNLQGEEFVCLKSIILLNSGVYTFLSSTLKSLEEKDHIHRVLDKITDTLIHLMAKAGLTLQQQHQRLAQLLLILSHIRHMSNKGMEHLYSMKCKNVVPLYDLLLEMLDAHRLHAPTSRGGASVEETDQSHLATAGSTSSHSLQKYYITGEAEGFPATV
The source made the active and inactive calls.
property label: IC50

Before answering, review these 4 worked examples.
compound: N#CCCS(=O)(=O)c1nnnn1-c1ccccc1
IC50: > 50 µM (not active)

compound: Cc1cc(C)cc(OCc2nc3cc(Br)c[nH]c-3n2)c1
IC50: > 50 µM (not active)

compound: CN(C)CC(=O)N1c2ccccc2CCc2ccc(NC(=O)c3ccc(N)cc3)cc21
IC50: 15.6 µM (active)

compound: CCc1nnc(NC(=O)C2Cc3ccccc3CN2S(=O)(=O)c2cccs2)s1 (stereo unspecified)
IC50: > 50 µM (not active)

Input: Give me measured IC50, please, for this compound: Cc1ccc(-c2nnc(S)n2/N=C/C=C\c2ccccc2[N+](=O)[O-])cc1
Output: 7.32 µM (active)

Input: Give me measured IC50, please, for this compound: CCOC(=O)c1c(C)oc2c1c(/C=N/C1CCS(=O)(=O)C1)c(O)c1ccccc12 (stereo unspecified)
Output: 16 µM (active)
